- Tested on: HEK-293T
- measurement.notes: Multiplex assay against HEK293T
- Format: toxicity, cell-based
- condition.notes: human, 24 h, 10 µM, compound concentration 10 uM, replicate 2
Parameter: Population Hoechst High Intensity Objects (%). Scope: all listed entries.
The answer is to be given in %; state only the numeric part.

molecule	measured.value
C=CC(=O)Nc1cccc(Sc2nc(Nc3ccc(N4CCN(C)CC4)cc3)ncc2Cl)c1	4
COC(=O)C1=C(C)NC(C)=C(C(=O)OCCCN2CCC(c3ccccc3)(c3ccccc3)CC2)[C@H]1c1cccc([N+](=O)[O-])c1 [NIGULDIPINE]	6
COc1cc2ncn(-c3cc(OCc4ccccc4C(F)(F)F)c(C(N)=O)s3)c2cc1OC [GW843682X]	3
C=CC(=O)Nc1ccc2[nH]c(=O)n(C3CCN(Cc4ccc(-c5nc6cc[nH]c(=O)c6cc5-c5ccccc5)cc4)CC3)c2c1 [Borussertib]	9

Ask: What is its Population Hoechst High Intensity Objects (%) for HEK-293T? Entry: "C=CC(=O)Nc1cccc(Oc2nc(Nc3ccc(N4CCN(C)CC4)cc3OC)ncc2Cl)c1"
Reply: 2

Ask: What is its Population Hoechst High Intensity Objects (%) for HEK-293T? Entry: COc1ccccc1CN[C@H]1C2CCN(CC2)[C@H]1C(c1ccccc1)c1ccccc1 [CP-96345]
Reply: 2

Ask: What is its Population Hoechst High Intensity Objects (%) for HEK-293T? Entry: CC(C)CC(=O)Nc1[nH]nc2c1CN(C(=O)C1CCN(C)CC1)C2(C)C [PHA-793887]
Reply: 4

Ask: What is its Population Hoechst High Intensity Objects (%) for HEK-293T? Entry: CNC(=O)c1ccc(Nc2ncc(C(F)(F)F)c(NCc3nccnc3N(C)S(C)(=O)=O)n2)cc1 [DEFACTINIB]
Reply: 3

* * *

Parameter: Population Mitochondria Different-Phenotype (%). Scope: all listed entries.
- Test system: U2OS
- measurement.notes: Multiplex assay against U2OS
- Format: toxicity, cell-based
- condition.notes: human, 24 h, 10 µM, compound concentration 10 uM, replicate 1
The answer is to be given in %; state only the numeric part.

molecule	measured.value
COc1ccccc1CN[C@H]1C2CCN(CC2)[C@H]1C(c1ccccc1)c1ccccc1 [CP-96345]	90
Cc1ccc2c(c1)c1c(n2CCc2ccc(C)nc2)CCN(C)C1 [LATREPIRDINE]	97
CC(C)Oc1ccccc1C(=O)Nc1ccccc1C(=O)Nc1cccc(S(=O)(=O)C(F)(F)F)c1	74
Cc1c[nH]c2nccc(Oc3c(F)cc(Nc4cc(Cl)nc(N)n4)cc3F)c12 [BAY-549]	19
CCc1ccc(OCc2ccccc2C(=O)Nc2ccc3nc(C)cc(N)c3c2)cc1.Cl	100
CC(C)CC(=O)Nc1[nH]nc2c1CN(C(=O)C1CCN(C)CC1)C2(C)C [PHA-793887]	45
CC(C)(C)NC[C@H](O)COc1nsnc1N1CCOCC1 [TIMOLOL]	2
O=C(c1cc2c(cc1F)OC(c1ccc(F)cc1)(c1ccc(Cl)cc1Cl)O2)N1CCOCC1 (centres undefined)	98

Ask: Item COc1cc2ncn(-c3cc(OCc4ccccc4C(F)(F)F)c(C(N)=O)s3)c2cc1OC [GW843682X] has what recorded Population Mitochondria Different-Phenotype (%)?
Reply: 90

* * *

Parameter: Population Normal (%). Scope: all listed entries.
- Tested on: HEK-293T
- measurement.notes: Multiplex assay against HEK293T
- Type: toxicity, cell-based
- condition.notes: human, 12 h, 1 µM, compound concentration 1 uM, replicate 2
The answer is to be given in %; state only the numeric part.

compound	measurement.type	output.unit	measured.value
CC(C)c1noc(N2CCC(COc3ccc(-c4ccc(S(C)(=O)=O)cc4)nc3)CC2)n1	Population Normal (%)	%	98
Cc1c[nH]c2nccc(Oc3c(F)cc(Nc4cc(Cl)nc(N)n4)cc3F)c12	Population Normal (%)	%	95

Ask: Item "CCCSc1nc(N[C@@H]2C[C@H]2c2ccc(F)c(F)c2)c2nnn([C@@H]3C[C@H](OCCO)[C@@H](O)[C@H]3O)c2n1" has what recorded Population Normal (%)?
Reply: 96

Ask: Item O=C(c1cc2c(cc1F)OC(c1ccc(F)cc1)(c1ccc(Cl)cc1Cl)O2)N1CCOCC1 (stereo not drawn) has what recorded Population Normal (%)?
Reply: 94
